biological target: human GLP-1R (human, UniProt P43220 24-463); experiment: cell-based or functional assay
Square brackets hold non-standard residues; d marks the D form. Side chains are listed from the residue outwards. Phe(2-F) = N[C@@H](Cc1ccccc1F)C(=O)O; αMeF = C[C@](N)(Cc1ccccc1)C(=O)O; Iva = CC[C@](C)(N)C(=O)O; Aib = CC(C)(N)C(=O)O
READOUT TYPE: Agonist activity (EC50), Cre-luc reporter assay (pM)
Give a bare numeral; the unit pM is implied.

Sample records with Agonist activity (EC50), Cre-luc reporter assay:
>  <BINDER>
Me-Y[Aib]EGT[αMeF]TSDK([Gly-Gly-Gly-Gly-Pal])[Aib]I[Aib]LEKQRQ[Iva]EFVRHLLNK[Aib]TRQRY-NH2

>  <UNITS LABEL>
pM

>  <RESULT VALUE>
130

$$$$
>  <BINDER>
Me-Y[Aib]EGT[αMeF]TSDK([Gly-Gly-Gly-Gly-Pal])SI[Aib]LEKQRQ[Iva]EFVRHLLNK[Aib]TRQRY-NH2

>  <UNITS LABEL>
pM

>  <RESULT VALUE>
48

$$$$
>  <BINDER>
Me-Y[Aib]EGT[αMeF]TSDK([Gly-Gly-Gly-Gly-Pal])[Aib]I[Aib]LDKQRQ[Iva]EFVRHLLNK[Aib]TRQR[Phe(2-F)]-NH2

>  <UNITS LABEL>
pM

>  <RESULT VALUE>
130

$$$$

Shifting focus to the binder that follows.
Report Agonist activity (EC50), Cre-luc reporter assay, nothing else, for this binder: "Me-Y[Aib]EGT[αMeF]TSDK([Gly-Gly-Gly-Gly-Pal])SI[Aib]LDKQRQ[Iva]EFVRHLLNK[Aib]TRQRY-NH2"
49
